Origin of values: ChEMBL document CHEMBL3988442

Test system: Leishmania donovani
Test: Leishmania intramacrophage assay
Type: functional, organism-based
Set-up: scale not given: in the data most compounds retested in dose-response had high values
Conditions: 30.3 µM; […]
In all, about 69,000 compounds went through this assay and about 1,000 (1.4%) showed an effect of 50% or more. This excerpt belongs to a sample that is enriched for strong results.
metric: Percent Effect (%)
One number for each entry, in %.

>  <molecule>
COc1cc(OC)nc(N2CCC3(CC2)OCCCC3O)n1 (stereo not drawn)

>  <readout_units>
%

>  <Percent Effect>
12.31

$$$$

Give measured Percent Effect for every item shown.
1. CN(C)c1nc(NCCCN2CCc3ccccc32)ncc1F
2. Cc1cc(C)nc(N2CCC(OCCN3CCCCC3)C2)n1 (stereo not drawn)
3. COc1cc(CN[C@@H]2COC[C@H]2Cc2cc(C)no2)cc(OC)c1.O=C(O)CC(O)(CC(=O)O)C(=O)O
4. COCC1CN(C(=O)COc2ccccc2C)Cc2ncn(C)c21.O=C(O)C(F)(F)F (stereo not drawn)

Result ::
50.82
-14.11
4.158
12.02
